Provenance of the data: paper PMC5196007

# method_description: Stability of analytes in whole blood samples
# Assay type: in vitro ADME, rat
# conditions_used: Bench top (4 hours, room temperature), medium concentration 95–160 ng/ml (0.5 µM), n = 6
endpoint_label: Stability Bias (%)
Field: numeric (%). Do not append units.

Examples with their reported Stability Bias (%) follow.
CCOC(=O)[C@@H]1[C@H]2CC[C@@H](C[C@@H]1O)N2C; −4.4
COC(=O)[C@H]1[C@@H](OC(=O)c2ccccc2)C[C@@H]2CC[C@H]1N2; 3.5

Query: Please give the documented Stability Bias (%) of CCOC(=O)[C@@H]1C2CCC(C[C@@H]1OC(=O)c1ccccc1)N2C (stereo partly drawn)
Response: −2.1

Query: Please give the documented Stability Bias (%) of CCOC(=O)[C@H]1[C@@H](O)C[C@@H]2CC[C@H]1N2
Response: 2.4

Query: Please give the documented Stability Bias (%) of COC(=O)[C@@H]1[C@H]2CC[C@@H](C[C@@H]1O)N2C
Response: 5.9

Query: Please give the documented Stability Bias (%) of CCOC(=O)[C@H]1[C@@H](OC(=O)c2ccccc2)C[C@@H]2CC[C@H]1N2
Response: −0.9
